Value source: patent US20120165309A1

Molecular target: Human PI3Kα (Homo sapiens, UniProt P42336)
Construct: purchased Millipore Corporation 14-602
Sequence (P42336 whole entry, one chain of several): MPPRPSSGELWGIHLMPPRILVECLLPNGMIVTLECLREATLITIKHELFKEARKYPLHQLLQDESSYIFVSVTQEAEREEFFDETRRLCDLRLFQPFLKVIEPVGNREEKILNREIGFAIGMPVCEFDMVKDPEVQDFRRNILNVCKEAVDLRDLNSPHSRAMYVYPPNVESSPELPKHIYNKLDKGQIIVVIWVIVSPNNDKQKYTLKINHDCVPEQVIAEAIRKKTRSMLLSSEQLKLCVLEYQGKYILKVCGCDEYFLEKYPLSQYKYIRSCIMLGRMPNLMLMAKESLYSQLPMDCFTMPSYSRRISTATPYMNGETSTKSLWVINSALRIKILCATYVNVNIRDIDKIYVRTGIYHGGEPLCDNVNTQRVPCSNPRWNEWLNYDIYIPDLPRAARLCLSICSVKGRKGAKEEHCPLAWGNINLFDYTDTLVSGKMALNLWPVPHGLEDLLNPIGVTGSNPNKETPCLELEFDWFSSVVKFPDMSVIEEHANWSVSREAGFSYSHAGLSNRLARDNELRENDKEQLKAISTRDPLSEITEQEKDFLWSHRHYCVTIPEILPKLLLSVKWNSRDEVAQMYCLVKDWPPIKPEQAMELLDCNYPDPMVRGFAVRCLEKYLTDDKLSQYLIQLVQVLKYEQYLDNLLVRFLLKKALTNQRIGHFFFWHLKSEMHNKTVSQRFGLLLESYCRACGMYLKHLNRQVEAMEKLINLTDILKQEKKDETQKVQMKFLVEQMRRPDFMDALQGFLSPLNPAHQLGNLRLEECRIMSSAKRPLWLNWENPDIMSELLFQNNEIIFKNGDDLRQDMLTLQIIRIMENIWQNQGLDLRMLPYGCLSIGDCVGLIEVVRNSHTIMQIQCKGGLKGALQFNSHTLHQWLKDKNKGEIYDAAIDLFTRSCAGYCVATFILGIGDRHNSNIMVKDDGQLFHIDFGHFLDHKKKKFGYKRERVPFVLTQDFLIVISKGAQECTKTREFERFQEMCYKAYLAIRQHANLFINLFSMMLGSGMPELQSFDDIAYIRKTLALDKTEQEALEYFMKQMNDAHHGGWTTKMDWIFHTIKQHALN
Assay: PI3Kα enzyme inhibitory activity (Kinase-Glo Plus luminescence)
Type: biochemical
Details: Human PI3Kα 12 ng/well, phosphatidylinositol 0.2 μg/well, 37° C. for 3 hours
pIC50: −log10 of the molar value.
measured attribute: pIC50

See these solved cases before continuing.
Cc1ccc(S(=O)(=O)NCC(=O)N[C@H]2CC[C@H](Nc3nc(N4CCOCC4)cc(-n4c(C(F)F)nc5ccccc54)n3)CC2)cc1 [Example 53] : 5.57
FC[C@@H]1CCN1[C@H]1CC[C@H](CNc2cc(-n3c(C(F)F)nc4ccccc43)nc(N3CCOCC3)n2)CC1 [Example 539] : 5.66
COCCN(CC(C)F)[C@H]1CC[C@H](CNc2nc(N3CCOCC3)cc(-n3c(C(F)F)nc4ccccc43)n2)CC1 (stereo partly shown) [Example 374] : 5.92
O=S1(=O)CCN([C@H]2CC[C@H](CNc3cc(-n4c(C(F)F)nc5ccccc54)nc(N4CCOCC4)n3)CC2)CC1 [Example 229] : 5.17
C#CCN[C@H]1CC[C@H](CNc2nc(N3CCOCC3)cc(-n3c(C(F)F)nc4ccccc43)n2)CC1 [Example 422] : 5.24

[1] N#Cc1ccc(NC(=O)N[C@H]2CC[C@H](Nc3nc(N4CCOCC4)cc(-n4c(C(F)F)nc5ccccc54)n3)CC2)cc1 [Example 123]
[2] O=S(=O)(N[C@H]1CC[C@H](Nc2cc(-n3c(C(F)F)nc4ccccc43)nc(N3CCOCC3)n2)CC1)c1ccccc1 [Example 95]
// max by pIC50 over [ 1 , 2 ] Answer = label.
1

----------
pIC50: −log10 of the molar value.
Entries with their measured pIC50, system Human PI3Kα (Homo sapiens):
measured attribute: pIC50

See these solved cases before continuing.
CC(C)(O)CN(CC1CCC1)[C@H]1CC[C@H](CNc2nc(N3CCOCC3)cc(-n3c(C(F)F)nc4ccccc43)n2)CC1 : 5.23
CCN(C(C)COC)[C@H]1CC[C@H](CNc2nc(N3CCOC[C@H]3C)cc(-n3c(C(F)F)nc4ccccc43)n2)CC1 (stereo partly drawn) : 6.21
CC(F)C(C)N(C)[C@H]1CC[C@H](CNc2nc(N3CCOCC3)cc(-n3c(C(F)F)nc4ccccc43)n2)CC1 (stereo partly drawn) : 5.80
CC(N(C)[C@H]1CC[C@H](CNc2nc(N3CCOCC3)cc(-n3c(C(F)F)nc4ccccc43)n2)CC1)C(C)(C)O (stereo partly drawn) : 5.47
O=C(CN1CCCC1)N[C@H]1CC[C@H](Oc2cc(-n3c(C(F)F)nc4ccccc43)nc(N3CCOCC3)n2)CC1 : 5.00

[a] CC(C)(C)OC(=O)NC(C)(C)C(=O)N[C@H]1CC[C@H](Nc2nc(N3CCOCC3)cc(-n3c(C(F)F)nc4ccccc43)n2)CC1
[b] COCC(C)N[C@H]1CC[C@H](CNc2nc(N3CCOC[C@@H]3C)cc(-n3c(C(F)F)nc4ccccc43)n2)CC1 (stereo partly drawn)
// max by pIC50 over [ a , b ] Answer = label.
b

----------
Target: human PI3Kδ enzyme (Homo sapiens, UniProt O00329)
Sequence (O00329 whole entry): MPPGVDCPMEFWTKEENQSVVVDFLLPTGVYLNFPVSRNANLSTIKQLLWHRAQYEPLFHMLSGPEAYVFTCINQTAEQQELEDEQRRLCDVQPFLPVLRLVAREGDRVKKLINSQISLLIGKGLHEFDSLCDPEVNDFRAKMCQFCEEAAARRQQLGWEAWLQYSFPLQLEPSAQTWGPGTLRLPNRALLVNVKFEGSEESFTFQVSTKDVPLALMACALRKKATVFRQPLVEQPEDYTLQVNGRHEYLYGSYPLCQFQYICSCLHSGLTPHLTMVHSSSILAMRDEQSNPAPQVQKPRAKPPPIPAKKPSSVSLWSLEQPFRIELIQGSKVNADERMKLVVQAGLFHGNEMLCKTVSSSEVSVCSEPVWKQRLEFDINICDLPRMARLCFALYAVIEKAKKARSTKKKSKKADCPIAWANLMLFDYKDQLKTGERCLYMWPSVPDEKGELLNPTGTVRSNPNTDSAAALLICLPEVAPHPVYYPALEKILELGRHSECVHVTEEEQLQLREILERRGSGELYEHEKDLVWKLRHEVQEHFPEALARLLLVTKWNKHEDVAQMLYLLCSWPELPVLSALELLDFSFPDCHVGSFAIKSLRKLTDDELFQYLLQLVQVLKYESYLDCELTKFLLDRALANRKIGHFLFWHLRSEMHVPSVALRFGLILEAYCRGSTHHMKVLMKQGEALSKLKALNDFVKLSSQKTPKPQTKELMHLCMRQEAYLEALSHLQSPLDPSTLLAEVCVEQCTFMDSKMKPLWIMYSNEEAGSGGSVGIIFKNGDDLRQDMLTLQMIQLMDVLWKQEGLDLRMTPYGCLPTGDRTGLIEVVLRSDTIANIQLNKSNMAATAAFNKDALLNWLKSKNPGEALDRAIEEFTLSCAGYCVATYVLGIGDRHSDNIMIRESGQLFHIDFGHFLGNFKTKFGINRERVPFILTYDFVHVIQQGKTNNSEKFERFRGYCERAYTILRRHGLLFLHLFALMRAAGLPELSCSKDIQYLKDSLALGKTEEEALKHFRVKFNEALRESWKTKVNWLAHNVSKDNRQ
Sequence (P27986 whole entry partner): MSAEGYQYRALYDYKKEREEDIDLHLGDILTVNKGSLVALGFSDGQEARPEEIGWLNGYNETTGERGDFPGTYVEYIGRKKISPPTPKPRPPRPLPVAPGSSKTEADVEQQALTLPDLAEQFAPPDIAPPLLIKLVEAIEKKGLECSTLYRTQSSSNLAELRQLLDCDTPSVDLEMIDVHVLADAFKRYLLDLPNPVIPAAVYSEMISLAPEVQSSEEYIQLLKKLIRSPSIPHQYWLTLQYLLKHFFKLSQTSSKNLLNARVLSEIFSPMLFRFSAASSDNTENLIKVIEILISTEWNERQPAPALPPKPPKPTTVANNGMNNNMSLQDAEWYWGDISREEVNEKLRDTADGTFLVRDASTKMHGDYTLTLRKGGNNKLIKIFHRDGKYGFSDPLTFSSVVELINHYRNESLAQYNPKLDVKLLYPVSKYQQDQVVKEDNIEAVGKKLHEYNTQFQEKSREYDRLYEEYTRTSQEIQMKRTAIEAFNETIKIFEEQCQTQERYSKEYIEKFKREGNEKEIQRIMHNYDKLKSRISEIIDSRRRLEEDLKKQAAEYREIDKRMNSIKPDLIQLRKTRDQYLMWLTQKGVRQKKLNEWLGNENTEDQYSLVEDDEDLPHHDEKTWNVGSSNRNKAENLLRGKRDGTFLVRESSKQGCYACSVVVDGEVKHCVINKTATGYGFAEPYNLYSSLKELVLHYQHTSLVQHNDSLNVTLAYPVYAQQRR
measured attribute: IC50 (nM)

See these solved cases before continuing.
Oc1ccccc1CN[C@H]1CC[C@H](Nc2nc(N3CCOCC3)nc(-n3c(C(F)F)nc4ccccc43)n2)CC1 [Example 104] : 2.1
COC[C@@H]1CCCN1[C@H]1CC[C@H](CNc2cc(-n3c(C(F)F)nc4ccccc43)nc(N3CCOCC3)n2)CC1 [Example 513] : 3.5

[I] CCN(CC(C)(C)O)[C@H]1CC[C@H](CNc2nc(N3CCOC[C@H]3C)cc(-n3c(C(F)F)nc4ccccc43)n2)CC1 [Example 402]
[II] N#Cc1ccc(NC(=O)N[C@H]2CC[C@H](Nc3nc(N4CCOCC4)cc(-n4c(C(F)F)nc5ccccc54)n3)CC2)cc1 [Example 123]
// max by IC50 over [ I , II ] Answer = label.
I
(I: 3.6 nM, II: 0.85 nM)

----------
Target: human PI3Kδ enzyme (Homo sapiens)
Construct: purchased Millipore Corporation 14-604
Assay: PI3Kδ enzyme inhibitory activity (PI3-Kinase HTRF Assay kit)
Type: biochemical
Conditions: human PI3Kδ 10 ng/well, ATP 30 μM, PIP2 10 μM, room temperature 30 minutes
measured attribute: IC50 (nM)

[A] COCC(C)N(C)[C@H]1CC[C@H](CNc2nc(N3CCOC[C@H]3C)cc(-n3c(C(F)F)nc4ccccc43)n2)CC1 (stereo partly shown)
[B] FC(F)c1nc2ccccc2n1-c1cc(NC[C@H]2CC[C@H](N3CCC[C@H]3CN3CCCC3)CC2)nc(N2CCOCC2)n1
// max by IC50 over [ A , B ] Answer = label.
B

[A] FC[C@H]1CCCN1[C@H]1CC[C@@H](CNc2cc(-n3c(C(F)F)nc4ccccc43)nc(N3CCOCC3)n2)CC1
[B] O=C(NCc1ccc(F)cc1)N[C@H]1CC[C@H](Nc2nc(N3CCOCC3)nc(-n3c(C(F)F)nc4ccccc43)n2)CC1
[C] CCCN(CCC)[C@H]1CC[C@H](CNc2nc(N3CCOCC3)cc(-n3c(C(F)F)nc4ccccc43)n2)CC1
[D] CC(C)(O)[C@@H]1CCCN1C1CCC(CNc2cc(-n3c(C(F)F)nc4ccccc43)nc(N3CCOCC3)n2)CC1 (stereo partly shown)
Kindly order the items shown according to IC50, from the highest value down. Give the labels in the order requested.
A, C, D, B
(A: 36 nM, C: 14 nM, D: 7.9 nM, B: 5.2 nM)

----------
Entries with their measured IC50, system human PI3Kδ enzyme (Homo sapiens, UniProt O00329):
measured attribute: IC50 (nM)

CC(C)(O)[C@@H]1CCCN1C1CCC(CNc2nc(N3CCOCC3)cc(-n3c(C(F)F)nc4ccccc43)n2)CC1 (some centres unmarked) : 9.4
CN(CCF)[C@H]1CC[C@H](CNc2nc(N3CCOCC3)cc(-n3c(C(F)F)nc4ccccc43)n2)CC1 : 4.4
O=S1(=O)CCCN1[C@H]1CC[C@H](Nc2cc(-n3c(C(F)F)nc4ccccc43)nc(N3CCOCC3)n2)CC1 : 5
CNC(=O)N[C@H]1CC[C@H](Nc2nc(N3CCOCC3)nc(-n3c(C(F)F)nc4ccccc43)n2)CC1 : 11
Cc1ccc(S(=O)(=O)NCC(=O)N[C@H]2CC[C@H](Nc3nc(N4CCOCC4)cc(-n4c(C(F)F)nc5ccccc54)n3)CC2)cc1 : 4.6

[P] CC(N(C)[C@H]1CC[C@H](CNc2nc(N3CCOC[C@@H]3C)cc(-n3c(C(F)F)nc4ccccc43)n2)CC1)C(C)(C)O (some centres unmarked)
[Q] COCC(C)N[C@H]1CC[C@H](CNc2nc(N3CCOCC3)cc(-n3c(C(F)F)nc4ccccc43)n2)CC1 (some centres unmarked)
[R] O=C1CCCN1[C@H]1CC[C@H](Nc2nc(N3CCOCC3)cc(-n3c(C(F)F)nc4ccccc43)n2)CC1
[S] CC(N(C)[C@H]1CC[C@H](CNc2nc(N3CCOCC3)cc(-n3c(C(F)F)nc4ccccc43)n2)CC1)C(C)(C)O (some centres unmarked)
Kindly order the items shown according to IC50, from the highest value down. Give the labels in the order requested.
Q, R, S, P
(Q: 22 nM, R: 14 nM, S: 7 nM, P: 4.1 nM)

----------
Entries with their measured IC50, system Human PI3Kα (Homo sapiens, UniProt P42336):
measured attribute: IC50 (nM)

See these solved cases before continuing.
CCN(C(C)COC)[C@H]1CC[C@H](CNc2nc(N3CCOCC3)cc(-n3c(C(F)F)nc4ccccc43)n2)CC1 (some centres unmarked) : 950
C[C@@H]1COCCN1[C@H]1CC[C@H](CNc2cc(-n3c(C(F)F)nc4ccccc43)nc(N3CCOCC3)n2)CC1 : 5500
FC(F)c1nc2ccccc2n1-c1cc(NC[C@H]2CC[C@H](N3CCC[C@H]3CN3CCCC3)CC2)nc(N2CCOCC2)n1 : 5700

[A] CN1CCC[C@@H](C(=O)N[C@H]2CC[C@H](Nc3nc(N4CCOCC4)cc(-n4c(C(F)F)nc5ccccc54)n3)CC2)C1
[B] O=C(N[C@H]1CC[C@H](Nc2nc(N3CCOCC3)nc(-n3c(C(F)F)nc4ccccc43)n2)CC1)C(O)CO (some centres unmarked)
For the pair A and B , which member has the lower IC50 number? Answer = label.
B
(B: 470 nM, A: 1400 nM)

----------
Target: Human PI3Kα (Homo sapiens, UniProt P42336)
pIC50: −log10 of the molar value.
measured attribute: pIC50

CCN(CC)[C@H]1CC[C@H](CNc2nc(N3CCOCC3)cc(-n3c(C(F)F)nc4ccccc43)n2)CC1 : 5.44

[P] CC(F)CN(C)[C@H]1CC[C@H](CNc2nc(N3CCOCC3)cc(-n3c(C(F)F)nc4ccccc43)n2)CC1 (stereo partly shown)
[Q] CCN(C(C)C(C)(C)O)[C@H]1CC[C@H](CNc2nc(N3CCOCC3)cc(-n3c(C(F)F)nc4ccccc43)n2)CC1 (stereo partly shown)
// max by pIC50 over [ P , Q ] Answer = label.
Q
